- EXPERIMENTAL_SYSTEM: FXa (Homo sapiens, UniProt P00742)
- Sequence (P00742 235-488 limits assumed): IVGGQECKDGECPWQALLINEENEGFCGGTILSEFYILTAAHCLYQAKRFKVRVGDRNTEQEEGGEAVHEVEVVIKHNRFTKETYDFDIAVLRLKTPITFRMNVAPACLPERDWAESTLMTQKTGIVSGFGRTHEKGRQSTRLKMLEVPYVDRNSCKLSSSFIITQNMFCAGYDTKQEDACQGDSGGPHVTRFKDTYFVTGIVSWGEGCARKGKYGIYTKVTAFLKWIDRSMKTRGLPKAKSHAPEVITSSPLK
- Sequence (P00742 41-179 partner limits assumed): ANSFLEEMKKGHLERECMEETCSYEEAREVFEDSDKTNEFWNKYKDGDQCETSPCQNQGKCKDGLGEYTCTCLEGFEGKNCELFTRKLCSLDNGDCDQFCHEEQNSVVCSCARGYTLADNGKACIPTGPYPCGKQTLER
- ASSAY_COMMENT: Selectivity: FXa inhibition, substrate Biophen CS-11(32)
- CONDITION_INFO: 15 min preincubation; Tris buffer pH 8.3; 522 μM substrate
PROPERTY_MEASURED: pIC50
Just so you know, pIC50 here is -log10 of the concentration in molar units; reply with that number alone.

Known pIC50 results, listed for orientation:
MOLECULE	READING
CCN(CC)c1ccc2c(-c3ccccc3C(=O)N3CCN(C(=O)CCCCCCCn4cc(COCCOCCOC(=O)NC(Cc5ccc(NC(=N)N)cc5)P(=O)(Oc5ccccc5)Oc5ccccc5)nn4)CC3)c3ccc(=[N+](CC)CC)cc-3oc2c1 (stereo not shown) [Final compound 2]	3.75
CCN(CC)c1ccc2c(-c3ccccc3C(=O)N3CCN(C(=O)CCCCCCCn4cc(COCCOCCOCCOC(=O)NC(Cc5ccc(NC(=N)N)cc5)P(=O)(Oc5ccccc5)Oc5ccccc5)nn4)CC3)c3ccc(=[N+](CC)CC)cc-3oc2c1 (stereo not shown) [Final compound 3]	4.41

Shift focus to the following entry.
Qu. # value lookup — system FXa (Homo sapiens, UniProt P00742), readout pIC50, item CCN(CC)c1ccc2c(-c3ccccc3C(=O)N3CCN(C(=O)CCCCCCCn4cc(CCCOC(=O)NC(Cc5ccc(NC(=N)N)cc5)P(=O)(Oc5ccccc5)Oc5ccccc5)nn4)CC3)c3ccc(=[N+](CC)CC)cc-3oc2c1.O=C(O)C(F)(F)F.[Cl-] (stereo not shown) [Final compound 4]
Ans. 4.19
